From: ChEMBL document CHEMBL4190357

Catalogue of IC50 values
- system_tested: Mitogen-activated protein kinase kinase kinase 14 (Homo sapiens)
- Sequence (Q99558 whole entry): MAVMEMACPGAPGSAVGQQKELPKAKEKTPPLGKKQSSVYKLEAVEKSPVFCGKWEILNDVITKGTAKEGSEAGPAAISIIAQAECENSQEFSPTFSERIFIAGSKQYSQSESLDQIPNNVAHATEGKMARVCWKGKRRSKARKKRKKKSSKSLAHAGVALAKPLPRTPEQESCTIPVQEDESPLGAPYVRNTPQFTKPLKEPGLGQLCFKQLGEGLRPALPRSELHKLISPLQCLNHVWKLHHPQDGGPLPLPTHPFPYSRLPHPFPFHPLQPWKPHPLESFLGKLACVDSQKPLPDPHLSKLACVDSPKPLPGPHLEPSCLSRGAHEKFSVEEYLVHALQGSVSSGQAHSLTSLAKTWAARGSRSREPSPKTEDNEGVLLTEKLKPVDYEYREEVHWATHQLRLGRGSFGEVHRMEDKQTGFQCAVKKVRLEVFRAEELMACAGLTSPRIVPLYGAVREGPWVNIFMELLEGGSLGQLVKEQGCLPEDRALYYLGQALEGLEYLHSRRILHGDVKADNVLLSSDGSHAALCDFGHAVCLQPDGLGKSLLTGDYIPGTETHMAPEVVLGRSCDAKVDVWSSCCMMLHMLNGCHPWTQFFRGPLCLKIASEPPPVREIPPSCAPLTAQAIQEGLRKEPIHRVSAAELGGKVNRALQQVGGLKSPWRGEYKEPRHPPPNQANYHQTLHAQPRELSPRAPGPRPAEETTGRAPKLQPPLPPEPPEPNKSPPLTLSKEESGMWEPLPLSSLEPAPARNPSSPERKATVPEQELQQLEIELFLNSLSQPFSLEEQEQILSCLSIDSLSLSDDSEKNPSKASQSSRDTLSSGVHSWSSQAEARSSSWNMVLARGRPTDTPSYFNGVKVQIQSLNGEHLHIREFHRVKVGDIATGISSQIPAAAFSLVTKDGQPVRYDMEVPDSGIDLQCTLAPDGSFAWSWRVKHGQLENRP
- assay_name: Inhibition of MAP3K14 in human L363 assessed as decrease in IKKalpha phosphorylation level after 2 hrs by sandwich immuno assay

Example entries begin here.
# structure_notation, quantity_measured, result
data = [
    ("Cc1ccc(C#N)cc1Nc1ncc(F)c(-c2cc(C#N)c3c(c2)[C@@](C)(CO)CN3)n1", "IC50", "1.2 nM"),
    ("Cc1cc(F)c(CO)cc1Nc1nccc(-c2cc(C#N)c3c(c2)[C@@](C)(CO)CN3)n1", "IC50", "7.8 nM"),
    ("CC(C)(O)COc1ccc(C#N)cc1Nc1nccc(-c2cc(C#N)c3c(c2)[C@@](C)(CO)CN3)n1", "IC50", "25.7 nM"),
]

I would be grateful if you could share the reported IC50 for [2H]C([2H])(O)c1ccc(C)c(Nc2nccc(-c3cc(C#N)c4c(c3)[C@@](C)(CO)CN4)n2)c1 .
2.2 nM
